# Target or test system: folate-receptor (FR) (Homo sapiens)
# Construct: FR-positive KB tumor cells (human oral epidermoid carcinoma) which overexpress FR; endogenous in cells
# Sequence (P15328 25-234): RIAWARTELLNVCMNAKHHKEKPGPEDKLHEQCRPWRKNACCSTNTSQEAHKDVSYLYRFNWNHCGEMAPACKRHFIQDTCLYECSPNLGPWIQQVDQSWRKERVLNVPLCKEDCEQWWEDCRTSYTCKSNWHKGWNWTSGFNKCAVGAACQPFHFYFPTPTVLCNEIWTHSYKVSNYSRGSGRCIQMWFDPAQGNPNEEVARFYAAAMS
# Assay comment: Competitive binding assay on FR-positive KB cells with 99mTc-labeled folate radioligand
pIC50: −log10 of the molar value.
Quantity: pIC50

{"columns": ["Molecule", "Quantity", "Numeric result"],
 "data": [
  ["NCCCCC(NC(=O)C1CCCN1)C(=O)NC(CS)C(=O)NCCCCC(NC(=O)CCC(NC(=O)c1ccc(NCC2=NC3C(=O)NC(N)=NC3N=C2)cc1)C(=O)O)C(=O)O (stereo not shown)", "pIC50", 6.80]
]}
